Values compiled from ChEMBL document CHEMBL1275345.

# targetOrTestSystem: Adenosine receptor A2a (Homo sapiens)
# Sequence (P29274 whole entry): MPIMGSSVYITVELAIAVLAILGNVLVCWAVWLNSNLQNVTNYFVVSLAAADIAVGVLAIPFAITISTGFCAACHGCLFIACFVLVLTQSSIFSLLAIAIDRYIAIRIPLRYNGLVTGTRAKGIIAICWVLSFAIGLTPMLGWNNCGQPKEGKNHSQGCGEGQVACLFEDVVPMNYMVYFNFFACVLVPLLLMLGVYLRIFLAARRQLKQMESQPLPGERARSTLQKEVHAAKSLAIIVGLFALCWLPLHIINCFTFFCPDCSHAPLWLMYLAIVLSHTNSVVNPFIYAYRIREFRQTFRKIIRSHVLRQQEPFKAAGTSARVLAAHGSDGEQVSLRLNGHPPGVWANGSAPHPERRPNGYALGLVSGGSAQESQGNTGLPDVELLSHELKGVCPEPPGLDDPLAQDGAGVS
# assayNotes: Displacement of [3H]ZM241385 from human adenosine A2a receptor expressed in HeLa cells at 10 uM after 30 mins
# Type: cell-based
The source made the active and inactive calls. No cut-off for these calls is given here.
parameter: inhibition

These solved cases illustrate the format of a correct answer.
The molecule listed as Cc1nc2c(=O)n(Cc3ccccc3)nc(-c3ccccc3)c2c2cc(-c3ccccc3)nn12 shows inhibition equal to inactive

The molecule listed as Cc1nn(Cc2ccccc2)c(=O)c2nnn3nc(-c4ccccc4)cc3c12 shows inhibition equal to < 50%

The molecule listed as O=c1c2ncn3nc(-c4ccccc4)cc3c2c(-c2cccc(F)c2)nn1Cc1ccccc1 shows inhibition equal to inactive

The molecule listed as Cc1nc2c(=O)n(Cc3ccccc3)nc(-c3cccc(F)c3)c2c2cc(-c3ccccc3)nn12 shows inhibition equal to inactive

The molecule listed as Cc1nn(C(C)c2ccccc2)c(=O)c2ncn3nc(-c4ccccc4)cc3c12 (stereo not given) shows inhibition equal to < 50%

The molecule listed as Cc1nc2c(SCc3ccccc3)nnc(-c3ccncc3)c2c2cc(-c3ccccc3)nn12 shows inhibition equal to < 50%

New cases:
The molecule listed as CCc1nc2c(=O)n(Cc3ccccc3)nc(-c3cccnc3)c2c2cc(-c3ccccc3)nn12 shows inhibition equal to < 50%

The molecule listed as O=c1c2ncn3nc(-c4ccsc4)cc3c2c(-c2cccc(F)c2)nn1Cc1ccccc1 shows inhibition equal to inactive

The molecule listed as Cc1nc2c(=O)n(Cc3ccccc3)nc(-c3cccc(F)c3)c2c2cc(-c3ccsc3)nn12 shows inhibition equal to inactive

The molecule listed as Cc1nn(Cc2ccccc2)c(=O)c2nc(C)n3nc(-c4ccccc4)cc3c12 shows inhibition equal to < 50%
